Where do the numbers come from? From patent US20070178531A1.

Target: T1, Mouse Id2: Histidine (mouse, UniProt P41136 1-134, limits assumed)
T1 construct: Fusion protein made in E. coli from vector pGW07; also called m-Id2: His; not shown: His tag
T1 sequence (looked up): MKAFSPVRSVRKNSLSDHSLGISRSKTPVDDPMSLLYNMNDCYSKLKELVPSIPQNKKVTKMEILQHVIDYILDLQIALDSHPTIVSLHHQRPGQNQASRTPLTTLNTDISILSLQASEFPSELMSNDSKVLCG
Test: ELISA, Ab 0.500 µg/ml
Result Type: A450

[[record]]
binder = "rabbit monoclonal anti-mouse/human Id3, clone #BCH-4/#42-1 (antibody, V domains shown, Rabbit IgG from a rabbit hybridoma; also called m/h Id3 MoAb 42-1) VH: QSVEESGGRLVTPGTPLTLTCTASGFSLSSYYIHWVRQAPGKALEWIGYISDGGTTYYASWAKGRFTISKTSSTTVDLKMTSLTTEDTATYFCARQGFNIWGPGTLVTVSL VL: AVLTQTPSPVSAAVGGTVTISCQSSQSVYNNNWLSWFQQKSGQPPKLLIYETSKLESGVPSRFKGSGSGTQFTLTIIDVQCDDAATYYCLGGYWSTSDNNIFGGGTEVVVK"
value_observed = "0.075 A450"

